In this section we review reported shrunken log2 fold change values for a set of sequences.
tested on: Escherichia coli TOP10; experiment: shrunken log2 fold change of peptide-encoding DNA abundance (4.5 h post-induction vs induction); higher = less antimicrobial activity (less host growth inhibition); conditions: time post-induction: 4.5 h; library: site-saturation at positions 5, 18, 19, 20
readout-kind: shrunken log2 fold change

[[record]]
sequence_string = "RRIRNRPPRLPRPRPRPQMRPRP"
system_under_test = "Escherichia coli TOP10"
data_value = 0.308

[[record]]
sequence_string = "RRIRTRPPRLPRPRPRPGHHPRP"
system_under_test = "Escherichia coli TOP10"
data_value = -0.27

[[record]]
sequence_string = "RRIRLRPPRLPRPRPRPDCPPRP"
system_under_test = "Escherichia coli TOP10"
data_value = 0.0832

[[record]]
sequence_string = "RRIRRRPPRLPRPRPRPYHAPRP"
system_under_test = "Escherichia coli TOP10"
data_value = -0.0669

[[record]]
sequence_string = "RRIRCRPPRLPRPRPRPRFRPRP"
system_under_test = "Escherichia coli TOP10"
data_value = 0.201

[[record]]
sequence_string = "RRIRSRPPRLPRPRPRPRRHPRP"
system_under_test = "Escherichia coli TOP10"
data_value = 0.323

[[record]]
sequence_string = "RRIRWRPPRLPRPRPRPPVDPRP"
system_under_test = "Escherichia coli TOP10"
data_value = 0.494

[[record]]
sequence_string = "RRIRERPPRLPRPRPRPSETPRP"
system_under_test = "Escherichia coli TOP10"
data_value = -0.428


###

test system: Escherichia coli TOP10; assay: shrunken log2 fold change of peptide-encoding DNA abundance (4.5 h post-induction vs induction); higher = less antimicrobial activity (less host growth inhibition); details: time post-induction: 4.5 h; library: site-saturation at positions 5, 18, 19, 20
In this section we review reported shrunken log2 fold change values for a set of sequences.
readout-kind: shrunken log2 fold change

[[record]]
sequence_string = "RRIRIRPPRLPRPRPRPQLMPRP"
data_value = -0.442

[[record]]
sequence_string = "RRIRRRPPRLPRPRPRPIQCPRP"
data_value = 0.00305

[[record]]
sequence_string = "RRIRMRPPRLPRPRPRPIHQPRP"
data_value = -0.108

[[record]]
sequence_string = "RRIRTRPPRLPRPRPRPRFQPRP"
data_value = 0.177

[[record]]
sequence_string = "RRIRKRPPRLPRPRPRPRTNPRP"
data_value = 0.238

[[record]]
sequence_string = "RRIRYRPPRLPRPRPRPLVLPRP"
data_value = -0.206

[[record]]
sequence_string = "RRIRERPPRLPRPRPRPPSFPRP"
data_value = -0.126

[[record]]
sequence_string = "RRIRYRPPRLPRPRPRPMQHPRP"
data_value = -0.17

[[record]]
sequence_string = "RRIRRRPPRLPRPRPRPDAEPRP"
data_value = 1.62

[[record]]
sequence_string = "RRIRWRPPRLPRPRPRPMLAPRP"
data_value = 1

[[record]]
sequence_string = "RRIRPRPPRLPRPRPRPPPMPRP"
data_value = 0.52

[[record]]
sequence_string = "RRIRRRPPRLPRPRPRPEMHPRP"
data_value = 0.705

[[record]]
sequence_string = "RRIRDRPPRLPRPRPRPVDCPRP"
data_value = -0.0327

[[record]]
sequence_string = "RRIRCRPPRLPRPRPRPLIRPRP"
data_value = -0.109

[[record]]
sequence_string = "RRIRKRPPRLPRPRPRPWWVPRP"
data_value = 0.404


###

test system: Escherichia coli TOP10; experiment: shrunken log2 fold change of peptide-encoding DNA abundance (4.5 h post-induction vs induction); higher = less antimicrobial activity (less host growth inhibition); settings: time post-induction: 4.5 h; library: site-saturation at positions 5, 18, 19, 20;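 also: peptides expressed intracellularly from a pBAD plasmid library in pooled LB shake-flask culture, induced with 0.3% L-arabinose, DNA abundance read by NGS, three biological replicates, DESeq2 with apeglm shrinkage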
In this section we review reported shrunken log2 fold change values for a set of sequences.
readout-kind: shrunken log2 fold change

[[record]]
sequence_string = "RRIRQRPPRLPRPRPRPDGGPRP"
readout_kind = "shrunken log2 fold change"
data_value = 0.255

[[record]]
sequence_string = "RRIRKRPPRLPRPRPRPVQGPRP"
readout_kind = "shrunken log2 fold change"
data_value = -0.0824

[[record]]
sequence_string = "RRIRWRPPRLPRPRPRPPMDPRP"
readout_kind = "shrunken log2 fold change"
data_value = 0.0637

[[record]]
sequence_string = "RRIRGRPPRLPRPRPRPGSVPRP"
readout_kind = "shrunken log2 fold change"
data_value = 0.484

[[record]]
sequence_string = "RRIRLRPPRLPRPRPRPYRRPRP"
readout_kind = "shrunken log2 fold change"
data_value = 0.0203

[[record]]
sequence_string = "RRIRLRPPRLPRPRPRPDEAPRP"
readout_kind = "shrunken log2 fold change"
data_value = 0.189

[[record]]
sequence_string = "RRIRLRPPRLPRPRPRPWWGPRP"
readout_kind = "shrunken log2 fold change"
data_value = -0.063

[[record]]
sequence_string = "RRIRHRPPRLPRPRPRPMYPPRP"
readout_kind = "shrunken log2 fold change"
data_value = -0.304

[[record]]
sequence_string = "RRIRVRPPRLPRPRPRPFNRPRP"
readout_kind = "shrunken log2 fold change"
data_value = -0.0378

[[record]]
sequence_string = "RRIRGRPPRLPRPRPRPVACPRP"
readout_kind = "shrunken log2 fold change"
data_value = 0.72

[[record]]
sequence_string = "RRIRFRPPRLPRPRPRPPRWPRP"
readout_kind = "shrunken log2 fold change"
data_value = 0.659

[[record]]
sequence_string = "RRIRPRPPRLPRPRPRPAGSPRP"
readout_kind = "shrunken log2 fold change"
data_value = 0.206

[[record]]
sequence_string = "RRIRYRPPRLPRPRPRPPEKPRP"
readout_kind = "shrunken log2 fold change"
data_value = 0.274

[[record]]
sequence_string = "RRIRQRPPRLPRPRPRPWMFPRP"
readout_kind = "shrunken log2 fold change"
data_value = -0.374

[[record]]
sequence_string = "RRIRRRPPRLPRPRPRPLAKPRP"
readout_kind = "shrunken log2 fold change"
data_value = 0.571


meta.source: the supplement of paper PMC9112550
